# targetDesc: FAAH (Mus musculus, UniProt O08914)
# Sequence (O08914 whole entry): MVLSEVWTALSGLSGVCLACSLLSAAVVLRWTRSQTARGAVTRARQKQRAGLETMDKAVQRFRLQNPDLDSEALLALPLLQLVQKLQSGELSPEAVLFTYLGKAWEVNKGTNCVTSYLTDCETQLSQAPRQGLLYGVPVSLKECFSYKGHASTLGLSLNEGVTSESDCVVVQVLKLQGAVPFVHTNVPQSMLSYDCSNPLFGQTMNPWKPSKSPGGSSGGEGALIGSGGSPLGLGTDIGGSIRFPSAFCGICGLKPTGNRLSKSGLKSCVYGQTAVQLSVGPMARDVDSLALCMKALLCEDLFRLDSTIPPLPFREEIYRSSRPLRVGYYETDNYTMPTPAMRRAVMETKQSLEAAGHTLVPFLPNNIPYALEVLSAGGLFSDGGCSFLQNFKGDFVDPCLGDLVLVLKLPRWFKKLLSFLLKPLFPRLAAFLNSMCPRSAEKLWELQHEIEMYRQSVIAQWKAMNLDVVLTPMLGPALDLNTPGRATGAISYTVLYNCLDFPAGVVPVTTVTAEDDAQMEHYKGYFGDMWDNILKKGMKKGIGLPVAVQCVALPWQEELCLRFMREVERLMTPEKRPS
# protocol: biochemical
# measurementContext: in vitro competitive ABPP
reportedEndpoint: IC50

Some solved entries appear below for comparison.
>>> result("CCn1ncc(CN2CC3CN(C(=O)OC(C(F)(F)F)C(F)(F)F)CC3C2)c1C(=O)NCCc1cccc(Cl)c1 (stereo not shown)")
"> 10000 nM"
>>> result("CCn1cc(CN2CC3CN(C(=O)OC(C(F)(F)F)C(F)(F)F)CC3C2)c(-c2ccc(N3CCCCC3)cc2)n1 (stereo not shown)")
"1000 to 10000 nM"
>>> result("O=C(OC(C(F)(F)F)C(F)(F)F)N1CC2CN(Cc3ccc(Cl)cc3N3CCC3)CC2C1 (stereo not shown)")
"100 to 1000 nM"

The reported value for O=C(OC(C(F)(F)F)C(F)(F)F)N1CC2CN(Cc3ccc(Cl)cc3N3CC4COCC4C3)CC2C1 (stereo not shown) in terms of IC50 is 1000 to 10000 nM

// sample CCn1cc(CN2CC3CN(C(=O)OC(C(F)(F)F)C(F)(F)F)CC3C2)c(-c2ccncc2)n1 (stereo not shown) , its IC50 was 1000 to 10000 nM

Short answer for O=C(ON1C(=O)CCC1=O)N1CC2CN(Cc3ccc(Cl)cc3N3CC4CCC(C3)O4)CC2C1 (stereo not shown) : IC50 was 1000 to 10000 nM

response.value for O=C(ON1C(=O)CCC1=O)N1CC2CN(Cc3ccc(N4CCOCC4)cc3Cl)CC2C1 (stereo not shown) (field: IC50) = 1000 to 10000 nM

Record CCN1CCN(c2cccc(CN3CC4CN(C(=O)OC(C(F)(F)F)C(F)(F)F)CC4C3)c2C)CC1 (stereo not shown) , field IC50: 1000 to 10000 nM

The compound O=C(ON1C(=O)CCC1=O)N1CC2CN(Cc3ccc(N4CCOCC4)cc3OC(F)(F)F)CC2C1 (stereo not shown) showed IC50 equal to 1000 to 10000 nM

Consider CCn1ncc(CN2CC3CN(C(=O)OC(C(F)(F)F)C(F)(F)F)CC3C2)c1C(=O)NCC1CC1 (stereo not shown) . Its measured IC50 is > 10000 nM

Lab note: measured IC50 of CC(C)c1cc(CN2CC3CN(C(=O)OC(C(F)(F)F)C(F)(F)F)CC3C2)n(C2CCOCC2)n1 (stereo not shown) was 1000 to 10000 nM

Recorded result, CCn1ncc(CN2CC3CN(C(=O)OC(C(F)(F)F)C(F)(F)F)CC3C2)c1C(=O)N1CCOCC1 (stereo not shown) , IC50: > 10000 nM

GET /value?item= O=C(OC(C(F)(F)F)C(F)(F)F)N1CC2CN(Cc3cccc(N4CCC5(CCOC5)C4)c3Cl)CC2C1 (stereo not shown) &field=IC50 returns 1000 to 10000 nM

Documented IC50 of O=C(OC(C(F)(F)F)C(F)(F)F)N1CC2CN(Cc3cccc(Cl)c3N3CCOCC3)CC2C1 (stereo not shown) : 1000 to 10000 nM

O=C(ON1C(=O)CCC1=O)N1CC2CN(Cc3ccccc3-c3ccccc3)CC2C1 (stereo not shown) has a reported IC50 of 100 to 1000 nM

The compound CCn1cc(CN2CC3CN(C(=O)OC(C(F)(F)F)C(F)(F)F)CC3C2)c(-c2ccccc2N2CCCCC2)n1 (stereo not shown) showed IC50 equal to > 10000 nM

So, CC(=O)N1CCN(c2ccc(CN3CC4CN(C(=O)OC(C(F)(F)F)C(F)(F)F)CC4C3)c(Cl)c2)CC1 (stereo not shown) ? Its IC50 was 100 to 1000 nM

Please fill in: IC50 reported for CC(=O)NC1CN(c2ccc(Cl)cc2CN2CC3CN(C(=O)OC(C(F)(F)F)C(F)(F)F)CC3C2)C1 (stereo not shown) = 1000 to 10000 nM

Lookup result for CC(C)c1ccc(CN2CC3CN(C(=O)OC(C(F)(F)F)C(F)(F)F)CC3C2)c(N2CCCC2)c1 (stereo not shown) ; measured IC50: 1000 to 10000 nM

So, O=C(OC(C(F)(F)F)C(F)(F)F)N1CC2CN(Cc3ccc(N4CCOCC4)cc3F)CC2C1 (stereo not shown) ? Its IC50 was 100 to 1000 nM

Memo: Cn1cc(CN2CC3CN(C(=O)ON4C(=O)CCC4=O)CC3C2)c(-c2ccccc2)n1 (stereo not shown) , reported IC50: > 10000 nM

Looking up O=C(OC(C(F)(F)F)C(F)(F)F)N1CC2CN(Cc3cccc(-c4ccccc4)c3)CC2C1 (stereo not shown) , I found its IC50 recorded as 100 to 1000 nM

IC50 measured on O=C(OC(C(F)(F)F)C(F)(F)F)N1CC2CN(Cc3ccc(C(F)F)cc3N3CCCCC3)CC2C1 (stereo not shown) = 1000 to 10000 nM

The measured IC50 associated with O=C(OC(C(F)(F)F)C(F)(F)F)N1CC2CN(Cc3ccc(Cl)cc3N3CCN4CCC[C@@H]4C3)CC2C1 (stereo partly shown) reads > 10000 nM

Recorded result, CC(C)n1cc(CN2CC3CN(C(=O)OC(C(F)(F)F)C(F)(F)F)CC3C2)c(-c2cccc(Cl)c2)n1 (stereo not shown) , IC50: 1000 to 10000 nM
